Assay: Solvent stability: cesium distribution ratios as a function of contact time with 1.5 M HNO3
Assay type: physicochemical
Details: contact time 70 days with 1.5 M HNO3
Listing of entries alongside the reported Cesium distribution ratio as a function of contact time.
Number only, please.

CCCCCCCCOc1c2cccc1Cc1cccc3c1OCCOCCOc1ccccc1OCCOCCOc1c(cccc1Cc1cccc(c1OCCCCCCCC)C3)C2
3.6
CCCCCCCCCCOc1c2cccc1Cc1cccc3c1OCCOCCOc1ccccc1OCCOCCOc1c(cccc1Cc1cccc(c1OCCCCCCCCCC)C3)C2
3.5
CCCCC(CC)COc1c2cccc1Cc1cccc3c1OCCOCCOc1ccccc1OCCOCCOc1c(cccc1Cc1cccc(c1OC[C@H](CC)CCCC)C3)C2 (stereo partly shown)
1.5

Continue with the molecule presented below.
In one line, give reported Cesium distribution ratio as a function of contact time of the entry CC(C)CCCC(C)CCOc1c2cccc1Cc1cccc3c1OCCOCCOc1ccccc1OCCOCCOc1c(cccc1Cc1cccc(c1OCCC(C)CCCC(C)C)C3)C2 (stereo not shown) [MC-10B] .
3.4

Attribution: patent US8158088B2
